B1: tRNA (parent)
chain: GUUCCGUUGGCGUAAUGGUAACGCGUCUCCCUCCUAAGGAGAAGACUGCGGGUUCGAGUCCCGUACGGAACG

- Variants of: B1
- test: yeast fitness relative to wild type (ratio to wild type); higher = fitter; tRNA-Arg(CCU), competitive growth, 37 C, YPD
Variants at the floor of the assay were thinned out.
Entries and their measured yeast fitness follow.
experimental-endpoint: yeast fitness

>>> test_value("GUUCCGUUGGUGUACUGGUAUCGAGUCUCCCUACUAAGGAGAAGACUGCGGGUUCGAGUCCCGUAAGGAACG [C11U A15C A21U C24A C33A C66A]")
"≤ 0.5"
>>> test_value("GUUCCGUUGGCGUUAUGGUAUCGCGUCUGCCUCCUAAGGAGAAGAUUGCGGGUUCGAGUCCCGUACGGAACG [A14U A21U C29G C46U]")
"≤ 0.5"
>>> test_value("GUUCCGCUGGCGUAAUGGUUACGCGUCUCCCUCCUGAGGUGAAGACUGCGGGUUCGAGUCCCGUACGGAACG [U7C A20U A36G A40U]")
"≤ 0.5"
>>> test_value("GUUCCGUUGGCGUAAUGGUAGCGCGUCUACCUCCUAAGGAGAAGAUUGCGGGUUCGAGCCCCGUACGGAACG [A21G C29A C46U U59C]")
"≤ 0.5"
>>> test_value("GUUGCGUUGGCGAAAUGGUAACGCGUCUCCCUCCUAAGGAGAAGACUGCGGGAUCGAGUCCCGUGCGGAACG [C4G U13A U53A A65G]")
"≤ 0.5"
>>> test_value("GUUCCGUUGGCGUGAUGGUAACGCGUCUCCCUCCUUAGGAGAAGAGUGCGGGUUCGAGUCCAGUACGGCACG [A14G A36U C46G C62A A69C]")
"≤ 0.5"
>>> test_value("GUUCCGUUGGCGUAGUGGUAGCGCGUCUGCCUCCUAAGGAGGAGACUGCGGGUUAGAGUCCCGUACGGAACG [A15G A21G C29G A42G C55A]")
"≤ 0.5"
>>> test_value("GUUCCGUUGGCGUAAUGGUAACGCGUAUCCCUCCUAAGGAGAAGACUGCGGGUUCCAGUCCCGUACGGAUCG [C27A G56C A70U]")
"≤ 0.5"
>>> test_value("GUUCAGUUGGCGUGAUGGUAACGCGUCUCCCUCCUAGGGAGAAGACUGGGGGUUUCAGUCCCGUACGAAACG [C5A A14G A37G C49G C55U G56C G68A]")
"≤ 0.5"
>>> test_value("GUUCCGUUGGCGUAAUGGUAACGCAUCUCCCUACUAAGGGGAAGACUGCGGGUUCGAGUCCCGUACGGACCG [G25A C33A A40G A70C]")
"≤ 0.5"
>>> test_value("GUUCCGUUGGCGUAAUGGUAACGCGUCUCGCUCCAAAGGAGAAGACUGCGGGUUCGAGUCCUGUACGGAACG [C30G U35A C62U]")
"≤ 0.5"
>>> test_value("GUUACGUUGGCGUAAUGGUAACGGCUCUCCCUCCUAAGGAGAAGGCUGCGGGUUCGAGUACCGUACGGAACG [C4A C24G G25C A45G C60A]")
"≤ 0.5"
>>> test_value("GUUCGGUUGGCGUAAUGGUACCGCGUCUCCCUCCUAAGGAGAAGACUGCGAGUUCGAAUCCCGUACGGAACG [C5G A21C G51A G58A]")
"≤ 0.5"
>>> test_value("GUUUCGUUGGCGUAAUGGUAAGGCGUCCCCCUCCUAAGGAGAAGACUGCGGGUUCGAGCCCCGUACGGAACG [C4U C22G U28C U59C]")
"≤ 0.5"
>>> test_value("GUUCCAUUGGCGUAAUGGUAACGUGUCUCCCUCCUAGGGAGAAGACUGCGGGUUCGAGUCGCGUAUGGUACG [G6A C24U A37G C61G C66U A69U]")
"≤ 0.5"
>>> test_value("GUUUCGUUGGCGUAAUGGUUACGCGUCUCCCUCCUAAGGAGAAGACUGCGGGUUCGAGUCCCGUACGGAACG [C4U A20U]")
0.988
>>> test_value("GUUCCCUUGGCGUAAUGGUAACGAGUCACCCUCUUAAGGAGAAGACUGCGGGUUCGAGUCCCGUACGGAACG [G6C C24A U28A C34U]")
"≤ 0.5"
>>> test_value("GUUCCGUUGGCGUAAUGGUAACGCGUCUCACUCCUAAGGUGAAGACUGCGGGUUCGAUUCCCGUACGGAACG [C30A A40U G58U]")
"≤ 0.5"
>>> test_value("GUUCCGUUGGCGUAAUGGUAACGCAUCUCCCUCCUAUGGAGAAGACUGCGGGUACGAGUCCCGUACGGAACG [G25A A37U U54A]")
"≤ 0.5"
>>> test_value("GUUCCGUUGGCGUAAUGGUUUCGCGUCUCCGUCCUAAGGAGAAGACUGCGGGUUAGAGUCCCGUAUGGAACG [A20U A21U C31G C55A C66U]")
"≤ 0.5"
>>> test_value("GUUCCGUUGGCGUUAUGGUAACGCGUCUCCCUCCUAAGGAGAAGAGUGCGGGUUCGAGUCCCAUACGGAACG [A14U C46G G63A]")
0.53
>>> test_value("GUUCCGUUGGCGUAAGGGUAACGUGUCCCCCUCCUCAGGAGAAGACUGCGGGUUCGAGUCCCGUCCGGAACG [U16G C24U U28C A36C A65C]")
0.58
>>> test_value("GUUCGGUUGGAGUGAUGGUAACGCCUCUGCCUCCUAAGGAGAAGACUGCGGGUUCGAGUACCGUACGGAACG [C5G C11A A14G G25C C29G C60A]")
"≤ 0.5"
>>> test_value("GUUCCGUAGGCGUAAUGGUAACGCGUCCCCCUCCUAAGGAGAAGACUGCGGGUUCGAGUCCCGUACGGAACG [U8A U28C]")
0.738
>>> test_value("GUUCCGUUGGCGUAAAGGUAACGCGUCUCCCUCCUAAGGAGAAGAGUGCGGGUUCGAGUCCCGUACGGAACG [U16A C46G]")
0.951
>>> test_value("GUUCCGUUGGGGUAAUGGUAACGCGUCUCCCUCCUAAGGAGAAGAUUGCGGGUUCGAGUCCCGUACGGAACG [C11G C46U]")
0.752
>>> test_value("GUUCCGUUGACGUAAUCGUAACGCGUCUCCUUCCUAAGGAGAAAAAUGCGGGUUCGAGUCCCGUACGGAACG [G10A G17C C31U G44A C46A]")
"≤ 0.5"
>>> test_value("GUUCAGUUGGCGUAAUGGUAACGCGUCUCCCUCCUAAGGAGAAGAUUGUGGGUUCGAGUCCCGUACGGAACG [C5A C46U C49U]")
0.809
>>> test_value("GUUCCCUUGGCGUAAUGGUAACGCGUCUCCCUCCUACGGAGAAGACUGCGGGUUCGAGUCCCGUACGGAACG [G6C A37C]")
0.693
>>> test_value("GUUCCGUUGGCGUAAUGGUAACGAGUCUCCCUCCUAAGGAGAAGACUACGGGGUCGAGUCCCGUACCGAACG [C24A G48A U53G G67C]")
"≤ 0.5"
>>> test_value("GUUCCGUUGGCGUAAUGGUAACGCGUCUACCUCCUAAGGAGAAGACUGCGGGUUUGAGUCCCCUACGGAACG [C29A C55U G63C]")
"≤ 0.5"
>>> test_value("GUUCCGUUGGGGUAAAGGUAACGCGUCUCCCUCCUAAGGAGAAGACUGCGGGUUCGAGUACCGUACGGAACG [C11G U16A C60A]")
"≤ 0.5"
>>> test_value("GUUCCGUUGGCGUAAUGGUAACGCGUCUCCCUCCUAAGAAGAAGAUUGCGGGUUCGAGACCCGUACGGACCG [G39A C46U U59A A70C]")
"≤ 0.5"
>>> test_value("GUUCCGUUGGUGUUAUGGUAACGGGUCUCCCUCCUAAGGAGAAAACUGUGGGUUCGAGUCCCGUACUGAACG [C11U A14U C24G G44A C49U G67U]")
"≤ 0.5"
>>> test_value("GUUCCGUUGGAGUAAUGGUAACGCGUCUCCCUCCUAAGGAGAAGAUUGCGGGUUCGAGUCCCGUACGGAACG [C11A C46U]")
0.712
